target system: FECH Ferrochelatase, mitochondrial (Homo sapiens, UniProt P22830)
Construct: isoTOP-ABPP experiments performed in cell lysates (in vitro); endogenous in cells; host or cells: soluble proteome of human cancer cell lines (MDA-MB-231; Ramos and Jurkat also prepared)
Sequence (P22830 55-423): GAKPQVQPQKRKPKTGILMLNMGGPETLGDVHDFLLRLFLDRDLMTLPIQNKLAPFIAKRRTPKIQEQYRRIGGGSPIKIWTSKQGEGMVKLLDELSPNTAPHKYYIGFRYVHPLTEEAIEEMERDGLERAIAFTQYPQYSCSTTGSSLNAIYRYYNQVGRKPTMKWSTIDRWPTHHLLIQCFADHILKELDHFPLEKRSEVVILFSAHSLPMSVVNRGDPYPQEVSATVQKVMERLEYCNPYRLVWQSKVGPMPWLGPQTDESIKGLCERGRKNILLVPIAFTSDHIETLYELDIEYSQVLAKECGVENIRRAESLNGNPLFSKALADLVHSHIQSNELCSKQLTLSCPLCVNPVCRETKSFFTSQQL
assay notes: competitive isoTOP-ABPP
Format: binding
condition: 50 uM_231_sol_in vitro
Protocol: In vitro covalent fragment treatment for isoTOP-ABPP. All compounds were made up as solutions in DMSO (100×) and were used at a final concentration of 50 μM for activated esters and 100 μM for guanidinylating agents. […] R value calculation and processing. The ratios of light and heavy MS1 peaks for each unique peptide were quantified with a CIMAGE software using default parameters (3 MS1 acquisitions per peak and signal to noise threshold set to 2.5). […]
Returns one of T or F; T when isoTOP-ABPP ratio, lysine P22830_K304 is >= 1.

Would you say NC(=O)c1cc(C(F)(F)F)cc(C(F)(F)F)c1 [fragment 51, reference compound] shows isoTOP-ABPP ratio, lysine P22830_K304 at minimum 1?
F

Same for N#Cc1ccc(C(=O)Oc2ccc([N+](=O)[O-])cc2[N+](=O)[O-])cc1 [fragment 44, 2,4-Dinitrophenyl 4-cyanobenzoate]
T

Same for O=C(CCc1ccc2c(c1)OCO2)Oc1ccc([N+](=O)[O-])cc1[N+](=O)[O-] [fragment 45]
T

Same for O=C(Oc1c(F)c(F)c(C(F)(F)F)c(F)c1F)c1cc(C(F)(F)F)cc(C(F)(F)F)c1 [fragment 47]
T

Same for O=C(Oc1c(F)c(F)cc(F)c1F)c1cc(C(F)(F)F)cc(C(F)(F)F)c1 [fragment 48]
T

Same for O=C(ON1C(=O)CCC1=O)c1cc(C(F)(F)F)cc(C(F)(F)F)c1 [fragment 46]
F
